All figures here come from patent US20240148821A1.

target: protein-protein interaction between Kras and SOS1 (biotin-tagged human Kras loaded with GDP, His-tagged human SOS1) (Homo sapiens (Human), UniProt P01116, G12D); assay: Protein-protein interaction inhibition between Kras and SOS1 (KrasG12D-SOS PPI) using AlphaScreen; assay type: biochemical; conditions: AlphaScreen; biotin-tagged human Kras loaded with GDP, His-tagged human SOS1; read-out: KRAS G12D-SOS PPI IC50;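 also: kras produced in E. coli, Ni-coupled donor beads and streptavidin acceptor beads, excitation 680 nm with emission detected at 520–620 nm via singlet oxygen transfer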
Numbered stars: 1 amine (or outer) side, 2 acyl side, 3 side chain; on linkers, the order of the positions; unused ones are H or OH. Bridge positions count the residues as written; N and C are the ends. Square brackets hold non-standard residues; d marks the D form. Peptide text beside a SMILES is read from it. * marks the point of attachment. hPhe(3-Cl-4-CF3) = N[C@@H](CCc1ccc(C(F)(F)F)c(Cl)c1)C(=O)O; 3Oxa8azabicyclo(3.2.1)octane = C1CC2COCC1N2*; NEtPhe(4-Me) = CCN[C@@H](Cc1ccc(C)cc1)C(=O)O; X61 = O=C(CN(CCCN1CCC(F)(F)CC1)[*:1])[*:2]; NMeGly(cPent) = CN[C@H](C(=O)O)C1CCCC1; NMeGly(cBu) = CN[C@H](C(=O)O)C1CCC1; NMeCha = CN[C@@H](CC1CCCCC1)C(=O)O; Hyp = O=C(O)[C@@H]1C[C@@H](O)CN1; NMeChg = CN[C@H](C(=O)O)C1CCCCC1; NMeD = CN[C@@H](CC(=O)O)C(=O)O; NMeL = CN[C@@H](CC(C)C)C(=O)O; NMeV = CN[C@H](C(=O)O)C(C)C; NMeA = CN[C@@H](C)C(=O)O; Piperidide = C1CCN(*)CC1; Pyrrolidide = C1CCN(*)C1; Ac5c = NC1(C(=O)O)CCCC1; Aze = O=C(O)[C@@H]1CCN1; Sar = CNCC(=O)O
Below, each of the compounds is paired with its reported IC50 value.
Quick note: give the figure in nM, leave out the unit.

Answered examples (3):
Compound: CC[C@H](C)[C@@H]1NC(=O)[C@H](C)N(C)C(=O)C[C@@H](C(=O)N2CCCCC2)N(C)C(=O)[C@H](C(C)C)N(C)C(=O)C2(CCCC2)NC(=O)[C@H](Cc2ccccc2)NC(=O)[C@H](CCc2ccc(C(F)(F)F)c(Cl)c2)NC(=O)CN(C)C(=O)[C@H](CC2CCCCC2)N(C)C(=O)CN(C)C(=O)CN(C)C1=O [Compound 1125] ([NMeA]I[Sar][Sar][NMeCha][Sar][hPhe(3-Cl-4-CF3)]F[Ac5c][NMeV][NMeD]-Piperidide; lactam N-11)
Value Unit: nM
Quantitative Readout: 2.5
--
Compound: CC[C@H](C)[C@@H]1NC(=O)[C@H](CC(C)C)N(C)C(=O)C[C@@H](C(=O)N2CCCCC2)N(C)C(=O)[C@H](C2CCCCC2)N(C)C(=O)C2(CCCC2)NC(=O)CN(CCCN2CCC(F)(F)CC2)C(=O)[C@H](CCc2ccc(C(F)(F)F)c(Cl)c2)NC(=O)CN(C)C(=O)[C@H](CC2CCCCC2)N(C)C(=O)CN(C)C(=O)CN(C)C1=O [Compound 2021] ([NMeL]I[Sar][Sar][NMeCha][Sar][hPhe(3-Cl-4-CF3)][X61][Ac5c][NMeChg][NMeD]-Piperidide; lactam N-11)
Value Unit: nM
Quantitative Readout: 2.8
--
Compound: CCO[C@@H]1C[C@H]2C(=O)NC3(CCCC3)C(=O)N(C)[C@@H](C3CCCCC3)C(=O)N(C)[C@H](C(=O)N3CCCC3)CC(=O)N(C)[C@@H](C3CCC3)C(=O)N[C@@H]([C@@H](C)CC)C(=O)N(C)CC(=O)N(C)CC(=O)N(C)[C@@H](CC3CCCCC3)C(=O)N(C)CC(=O)N[C@@H](CCc3ccc(C(F)(F)F)c(Cl)c3)C(=O)N2C1 [Compound 1204] ([NMeGly(cBu)]I[Sar][Sar][NMeCha][Sar][hPhe(3-Cl-4-CF3)][Hyp](Et)[Ac5c][NMeChg][NMeD]-Pyrrolidide; lactam N-11)
Value Unit: nM
Quantitative Readout: 0.44

Ask | What value of IC50 has been recorded for this entry: CC[C@H](C)[C@@H]1NC(=O)[C@H](CC(C)C)N(C)C(=O)C[C@@H](C(=O)N2C3CCC2COC3)N(C)C(=O)[C@H](C2CCCC2)N(C)C(=O)C2(CCCC2)NC(=O)[C@@H]2CCCN2C(=O)[C@H](CCc2ccc(C(F)(F)F)c(Cl)c2)NC(=O)CN(C)C(=O)[C@H](Cc2ccc(C)cc2)N(CC)C(=O)[C@@H]2CCN2C(=O)[C@H](C)N(C)C1=O [Compound 1236] ([NMeL]I[NMeA][Aze][NEtPhe(4-Me)][Sar][hPhe(3-Cl-4-CF3)]P[Ac5c][NMeGly(cPent)][NMeD]-{3Oxa8azabicyclo(3.2.1)octane}; lactam N-11)
Reply | 7.3
